IC50 data for MCR-5 (Homo sapiens, UniProt P33032) follow.

[
  {
    "COMPOUND": "CNC(CN)CN1Cc2ccccc2C(CNC2CCCCC2)C1c1ccc(O)cc1 (stereo not shown) [TRG 2405-156]",
    "UNITS LABEL": "nM",
    "CENSORING SIGN": "=",
    "IC50": 2830
  },
  {
    "COMPOUND": "CNC(CN)CCCCN1Cc2ccccc2C(CNC2CCCCC2)C1c1ccc(Cl)cc1Cl (stereo not shown) [TRG 2405-190]",
    "UNITS LABEL": "nM",
    "CENSORING SIGN": "=",
    "IC50": 800
  },
  {
    "COMPOUND": "CCNc1ccc(C2C(CNCc3ccccc3O)c3ccccc3CN2CCCC(CN)NCCc2ccccc2)cc1 (stereo not shown) [TRG 2408-57]",
    "UNITS LABEL": "nM",
    "CENSORING SIGN": "=",
    "IC50": 1700
  },
  {
    "COMPOUND": "CNC(CN)CCCCN1Cc2ccccc2C(CNC2CCCCC2)C1c1ccc(-c2ccccc2)cc1 (stereo not shown) [TRG 2405-241]",
    "UNITS LABEL": "nM",
    "CENSORING SIGN": "=",
    "IC50": 1040
  },
  {
    "COMPOUND": "CNC(CN)CCCCN1Cc2ccccc2C(CN)C1c1ccc(Cl)cc1Cl (stereo not shown) [TRG 2407-39]",
    "UNITS LABEL": "nM",
    "CENSORING SIGN": "=",
    "IC50": 240
  },
  {
    "COMPOUND": "CNC(CN)CCCCN1Cc2ccccc2C(CNC2CCCCC2)C1c1ccc(C(F)(F)F)cc1 (stereo not shown) [TRG 2405-238]",
    "UNITS LABEL": "nM",
    "CENSORING SIGN": "=",
    "IC50": 430
  },
  {
    "COMPOUND": "CCNc1ccc(C2C(CNC3CCCCC3)c3ccccc3CN2CCCCC(CN)NC)cc1 (stereo not shown) [TRG 2408-30]",
    "UNITS LABEL": "nM",
    "CENSORING SIGN": "=",
    "IC50": 9350
  },
  {
    "COMPOUND": "CCNc1ccc(C2C(CNC3CCCCC3)c3ccccc3CN2CCCCC(CN)NC)cc1 (stereo not shown) [TRG 2405-239]",
    "UNITS LABEL": "nM",
    "CENSORING SIGN": "=",
    "IC50": 8720
  },
  {
    "COMPOUND": "CNC(CN)CCCCN1Cc2ccccc2C(CNC2CCCCC2)C1c1ccc(Oc2ccccc2)cc1 (stereo not shown) [TRG 2405-252]",
    "UNITS LABEL": "nM",
    "CENSORING SIGN": "=",
    "IC50": 1860
  },
  {
    "COMPOUND": "CNC(CN)CCCCN1Cc2ccccc2C(CNC2CCCCC2)C1c1ccc2cccc(O)c2n1 (stereo not shown) [TRG 2405-262]",
    "UNITS LABEL": "nM",
    "CENSORING SIGN": ">",
    "IC50": 10000
  },
  {
    "COMPOUND": "CCNc1ccc(C2C(CNC3CCCC3)c3ccccc3CN2CCCCC(CN)NC)cc1 (stereo not shown) [TRG 2407-67]",
    "UNITS LABEL": "nM",
    "CENSORING SIGN": "=",
    "IC50": 4160
  },
  {
    "COMPOUND": "CNC(CN)CCCCN1Cc2ccccc2C(CNC2CCCCC2)C1c1ccc(N(C)C)cc1 (stereo not shown) [TRG 2405-235]",
    "UNITS LABEL": "nM",
    "CENSORING SIGN": "=",
    "IC50": 2820
  },
  {
    "COMPOUND": "CCNc1ccc(C2C(CNC3CCCCC3)c3ccccc3CN2CCCC(CN)NCCc2ccccc2)cc1 (stereo not shown) [TRG 2408-62]",
    "UNITS LABEL": "nM",
    "CENSORING SIGN": "=",
    "IC50": 2790
  }
]
